Source of measurements: PubChem BioAssay (NCI)

Tested on: HCT-116 colon
Experiment: NCI tumour cell line growth inhibition, 48 h
Reported endpoint: TGI

COC(=O)CC(C#N)(OP1(=O)OC(c2ccccc2)C(C)N1C)c1ccccc1 (centres undefined)
52.4 µM
C=COCCCOc1ccccc1
> 100 µM
COc1cc(C#CC(=O)OC/C=C/c2ccc3c(c2)OCO3)cc(OC)c1OC
> 100 µM

Query TGI for CC(O)CCC(=O)c1ccoc1 (centres undefined)
> 8750 µM

Query TGI for O=C(/C=C/c1ccccc1O)c1ccccc1O
> 100 µM

Query TGI for COC(=O)CCC1=CCC2(SC)C(=O)Nc3cccc1c32 (centres undefined)
> 100 µM

Query TGI for Cc1cc(CC(O)c2ccc(Cl)c(Cl)c2)nc(=O)[nH]1 (centres undefined)
54.2 µM

Query TGI for O=C(O)CC1NC(/C(=C/c2ccccc2)NC(=O)c2ccccc2)OC1=O (centres undefined)
42.9 µM

Query TGI for NNC(=S)N/N=C(\CC1OC(=O)c2ccccc21)c1ccccc1O (centres undefined)
> 100 µM

---

log10(TGI) reference
Tested on: HOP-92 NSCLC
Experiment: NCI tumour cell line growth inhibition, 48 h
Would you kindly interpret these values as log10 of TGI expressed in µM?

CCCCCCCCCCCCOC1C(C(COC2OC(C3COC(C)(C)O3)C3OC(C)(C)OC23)NC(=O)Nc2ccc(C(=O)O)cc2)OC2OC(C)(C)OC21 (centres undefined)
0.91
COc1cc(C#CC(=O)OC/C=C/c2ccc3c(c2)OCO3)cc(OC)c1OC
1.74
FC(F)(F)c1ccc(N=C/C=C(/Nc2ccc(C(F)(F)F)cc2)c2ccc(Cl)cc2)cc1
1.71

Give reported log10(TGI) for S=C(Nc1ccccc1)N(/N=C/C=C/c1ccccc1)c1nnc(-c2ccccc2)c(-c2ccccc2)n1 (HOP-92 NSCLC)
1.92

---

Tested on: CAKI-1 renal
Test: NCI tumour cell line growth inhibition, 48 h
Reported endpoint: TGI

CNc1ccc(C(=O)CC(O)CCC(C)C2OC(=O)CC(O)CC(=O)CC(O)CC(O)CC(O)CC(O)CC3(O)CC(O)C(C(=O)NCCN(C)C)C(CC(OC4OC(C)C(O)C(NC(=O)CN5CCN(C)CC5)C4O)/C=C/C=C/C=C/C=C\C=C/C=C/C=C/C2C)O3)cc1 (stereo not drawn)
> 100 µM
O=C1C2CC=CCC2C(=O)N1n1c(Cc2ccc(Cl)cc2)n[nH]c1=O (stereo not drawn)
> 100 µM

Continue with the next compound.
Query TGI for COC(=O)c1cc2c(s1)C(=O)c1ccccc1-2
> 100 µM

---

System: UO-31 renal
Assay: NCI tumour cell line growth inhibition, 48 h
Reported endpoint: TGI

Here's what some known entries look like.
NC(=Nc1c([N+](=O)[O-])cnc2ccccc12)N1CCOCC1
> 100 µM
COc1cc(C(Cc2ccccc2)NC(C)=O)oc(=O)c1 (centres undefined)
> 100 µM
COc1cc(C2CC(c3cccc(Br)c3)=NN2C(C)=O)cc(OC)c1OC (centres undefined)
> 65.6 µM

Continue with the next molecule.
Query TGI for N=C1/C(=C/c2ccc(F)cc2)C(=O)N=C2SC=NN12
> 100 µM

---

System: SN12C renal
Assay: NCI tumour cell line growth inhibition, 48 h
TGI reference

Here's what some known entries look like.
CN(C)/C=N/c1nc2c(ncn2C2OC(CO)C(O)C2O)c(=O)[nH]1 (stereo not drawn)
> 100 µM
CC1=NNC(=O)C2CCC(=O)N12 (stereo not drawn)
> 100 µM
CC(C)CCN1c2nc(Nc3cc(F)c(O)c(F)c3)ncc2N(C)C(=O)C1C (stereo not drawn)
> 91.6 µM
CN1CCN(C(=O)CCNC(=O)Cc2ccc(C(=O)c3ccccc3)cc2)CC1
> 100 µM
O=C1C2CC=CCC2C(=O)N1n1c(Cc2ccc(Cl)cc2)n[nH]c1=O (stereo not drawn)
> 100 µM

Continue with the next molecule.
Query TGI for CCOC(=O)CCCn1c(SC)nc2[nH]cc(-c3ccccc3)c2c1=O
49.9 µM
